Tested on: MCF7
Experiment summary: NCI tumour cell line growth inhibition, 48 h
The source made the active and inactive calls. Rule as the data show it: active = GI50 up to about 1.1 µM and inactive = higher.
Classes used: 1 for active, 0 for inactive

{"columns": ["Molecule", "Group label"],
 "data": [
  ["Cc1c2ccccc2c(C2C3C(=O)N(c4cccc5ccccc45)C(=O)C3ON2Cc2ccc(CC(N)=O)cc2)c2ccccc12 (stereo not given)", 0],
  ["C=CCCCC1CCCNC1=O (stereo not given)", 0],
  ["NS(=O)(=O)c1nnc(NS(=O)(=O)c2ccc([N+](=O)[O-])cc2)s1", 0],
  ["CSC1=N[C@H](c2ccccc2)CS1", 0],
  ["CC(=O)OC(C#N)CC(C)(C)/[N+]([O-])=[N+](\\[O-])C(C)(C)CC(C#N)OC(C)=O (stereo not given)", 0],
  ["C=CC[C@]12C=C(OC)[C@@H](O)[C@](OC)(C(c3cc(OC)c4c(c3)OCO4)[C@H]1C)[C@H]2OC(C)=O (stereo not given in full)", 0],
  ["C=CCOc1cc2c(cc1C(C)c1ccc(OC)cc1)OCO2 (stereo not given)", 1],
  ["c1cc(-c2ccc(-c3ccc(-c4ccc(-c5cccc6nsnc56)[nH]4)c4nsnc34)[nH]2)c2nsnc2c1", 0],
  ["CN(C)c1ncnc2c1ncn2C1C=CC(COS(N)(=O)=O)C1 (stereo not given)", 0],
  ["N#Cc1c(-c2ccc([N+](=O)[O-])cc2)cc(-c2ccc(Nc3ccnc4cc(Cl)ccc34)cc2)nc1N", 0]
]}
